- System: gene pathways in mouse brain (prefrontal cortex)
- experimental-protocol: RNA sequencing of prefrontal cortex after supplemented metabolites: differentially expressed gene pathways
- Type: in vivo
- measurement-parameters: significance level 0.1, 12-week old mice, two weeks supplementation
Would you kindly list Differentially Expressed Gene Pathways in Mouse Brain for each of these compounds?

Consider the compound C[C@H](CCC(=O)NCC(=O)O)[C@H]1CC[C@H]2[C@@H]3CC[C@@H]4C[C@H](O)CC[C@]4(C)[C@H]3C[C@H](O)[C@]12C [GDC, glycodeoxycholate] . State its measured Differentially Expressed Gene Pathways in Mouse Brain.
277

Consider the compound C[C@H](CCC(=O)O)[C@H]1CC[C@H]2[C@@H]3[C@@H](O)C[C@@H]4C[C@H](O)CC[C@]4(C)[C@H]3CC[C@]12C [UDC, ursodeoxycholate] . State its measured Differentially Expressed Gene Pathways in Mouse Brain.
0

Consider the compound N[C@@H](CCC(=O)O)C(=O)O [Glutamate, glutamate] . State its measured Differentially Expressed Gene Pathways in Mouse Brain.
0

Consider the compound CC(=O)N[C@@H](CCC(=O)O)C(=O)O [N-acetyl-L-glutamate] . State its measured Differentially Expressed Gene Pathways in Mouse Brain.
145

Consider the compound CCCCCCC=CCCCC(=O)O [5D, 5-dodecenoate] . State its measured Differentially Expressed Gene Pathways in Mouse Brain.
216

---

- Test system: gene pathways in mouse brain (prefrontal cortex)
- experimental-protocol: RNA sequencing of prefrontal cortex after supplemented metabolites: differentially expressed gene pathways
- Type: in vivo
- measurement-parameters: significance level 0.05, 12-week old mice, two weeks supplementation
Would you kindly list Differentially Expressed Gene Pathways in Mouse Brain for each of these molecules?
Please give the numeric answer without any surrounding text.

Under gene pathways in mouse brain (prefrontal cortex), report Differentially Expressed Gene Pathways in Mouse Brain for CC(=O)N[C@@H](CCC(=O)O)C(=O)O [N-acetyl-L-glutamate]
82

Under gene pathways in mouse brain (prefrontal cortex), report Differentially Expressed Gene Pathways in Mouse Brain for N[C@@H](CCC(=O)O)C(=O)O [Glutamate, glutamate]
0

Under gene pathways in mouse brain (prefrontal cortex), report Differentially Expressed Gene Pathways in Mouse Brain for C[C@H](CCC(=O)NCC(=O)O)[C@H]1CC[C@H]2[C@@H]3CC[C@@H]4C[C@H](O)CC[C@]4(C)[C@H]3C[C@H](O)[C@]12C [GDC, glycodeoxycholate]
153

Under gene pathways in mouse brain (prefrontal cortex), report Differentially Expressed Gene Pathways in Mouse Brain for C[C@H](CCC(=O)O)[C@H]1CC[C@H]2[C@@H]3[C@@H](O)C[C@@H]4C[C@H](O)CC[C@]4(C)[C@H]3CC[C@]12C [UDC, ursodeoxycholate]
0

Under gene pathways in mouse brain (prefrontal cortex), report Differentially Expressed Gene Pathways in Mouse Brain for CCCCCCC=CCCCC(=O)O [5D, 5-dodecenoate]
0
